# experiment-notes: Half life in rat at 1 mg/kg, iv
# Type: ADME, organism-based
# Set-up: dose 1 mg/kg, route intravenous
# conditions: in vivo
Parameter: half-life. Scope: all listed entries.
Your answer should be a plain number; it is taken to be in h.

# annotated cases, reported half-life shown
O=C(O)CCCN1CC(c2nnn[nH]2)Oc2c(NC(=O)c3ccc(OCCCCc4ccccc4)cc3)cccc21 (stereo unspecified) ... 4
O=C(O)CCCN1CC(C(=O)O)Oc2c(/C=C/c3ccc(OCCCCc4ccccc4)cc3)cccc21 (stereo unspecified) ... 5.6
O=C(O)CCCn1cc(CC(=O)O)c2c(/C=C/c3ccc(OCCCCOc4ccccc4)cc3)cccc21 ... 7.1
O=C(O)CCCN1CC(C(=O)O)Oc2c(CCc3ccc(OCCCCc4ccccc4)cc3)cccc21 (stereo unspecified) ... 6

Tell me measured half-life for O=C(O)CCCN1CC(C(=O)O)Oc2c(OCc3ccc(OCCCCc4ccccc4)cc3)cccc21 (stereo unspecified) please.
6

Note half-life for the molecule shown: O=C(O)CCCN1CC(c2nnn[nH]2)Oc2c(CCc3ccc(OCCCCc4ccccc4)cc3)cccc21 (stereo unspecified)
3.8
